Target of assay: human GPR43 (Homo sapiens (Human))
Test: Ca-Flux functional assay: determination of agonist/positive allosteric modulator (PAM) activity
Study conditions: CHO-K1 Gα16 cells stably expressing human GPR43; compound added with EC20 sodium acetate; intracellular Ca2+ by FLIPR; does not distinguish agonist from PAM
Assay endpoint: EC50 (nM)

>  <Compound>
Nc1[nH]c2c(C3=CCCCC3)ncnc2c1S(=O)(=O)c1ccccc1

>  <Target of assay>
human GPR43 (Homo sapiens (Human))

>  <EC50 / nM>
21

$$$$

1 = Nc1[nH]c2c(C3CCCCC3)ncnc2c1S(=O)(=O)C1CCCCC1
2 = Nc1[nH]c2c(-c3cccnc3)ncnc2c1S(=O)(=O)c1ccccc1
3 = C[C@@H]1CN(c2ncnc3c(S(=O)(=O)c4ccccc4)c(N)[nH]c23)C[C@@H](C)O1
4 = Cc1nc(OC(C)C2CC2)c2[nH]c(N)c(S(=O)(=O)c3ccccc3)c2n1 (centres unmarked)
Order each entry by recorded EC50, climbing from the minimum. Order the labels as requested and list them.
4, 3, 1, 2
(4: 22 nM, 3: 34 nM, 1: 162 nM, 2: 3170 nM)

====

Target of assay: human GPR43 (Homo sapiens (Human), UniProt O15552)
Sequence (O15552 whole entry): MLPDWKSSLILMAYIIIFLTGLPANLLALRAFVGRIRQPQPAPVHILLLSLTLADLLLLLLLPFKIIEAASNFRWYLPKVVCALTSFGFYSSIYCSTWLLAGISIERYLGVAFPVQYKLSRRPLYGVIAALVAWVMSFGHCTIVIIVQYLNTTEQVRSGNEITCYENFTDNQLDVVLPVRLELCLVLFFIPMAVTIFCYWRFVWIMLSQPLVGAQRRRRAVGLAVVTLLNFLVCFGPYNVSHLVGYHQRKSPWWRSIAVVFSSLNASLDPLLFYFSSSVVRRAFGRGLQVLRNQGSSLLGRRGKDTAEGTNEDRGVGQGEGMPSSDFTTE
Test: Ca-Flux functional assay: determination of agonist/positive allosteric modulator (PAM) activity
Study conditions: CHO-K1 Gα16 cells stably expressing human GPR43; compound added with EC20 sodium acetate; intracellular Ca2+ by FLIPR; does not distinguish agonist from PAM
pEC50: −log10 of the molar value.
Assay endpoint: pEC50

Some compounds with known pEC50 results, for comparison:
>  <Compound>
COC1CCN(c2ncnc3c(S(=O)(=O)c4ccccc4)c(N)[nH]c23)C1 (centres unmarked)

>  <pEC50>
5.48

$$$$
>  <Compound>
Nc1[nH]c2c(OCC3CC3(F)F)ncnc2c1S(=O)(=O)c1ccccc1 (centres unmarked)

>  <pEC50>
6.43

$$$$
>  <Compound>
COc1ccc(S(=O)(=O)c2c(N)[nH]c3c(N4CCO[C@H](C(F)(F)F)C4)nc(C)nc23)c(F)c1

>  <pEC50>
9.00

$$$$
>  <Compound>
Nc1[nH]c2c(C3=CCCCC3)ncnc2c1S(=O)(=O)C1CCOCC1

>  <pEC50>
5.46

$$$$

P = Cc1nc(N2C[C@@H](C)O[C@@H](C)C2)c2[nH]c(N)c(S(=O)(=O)c3cccc(F)c3)c2n1
Q = COc1ccccc1CN(C)c1ncnc2c(S(=O)(=O)c3ccccc3)c(N)[nH]c12
Between P and Q , whose measured pEC50 reads higher? Give the chosen item's label as your response.
P
(P: 7.74, Q: 6.68)

a = Nc1[nH]c2c(OCC3CC3)ncnc2c1S(=O)(=O)c1ccccc1
b = Nc1[nH]c2c(OCC3CCCOC3)ncnc2c1S(=O)(=O)c1ccccc1 (centres unmarked)
c = Cc1nc(N2CCOC3(CCCC3)C2)c2[nH]c(N)c(S(=O)(=O)c3cccc(F)c3)c2n1
d = Nc1[nH]c2c(C3=CCCCC3)ncnc2c1Sc1ccccc1
e = Cc1cc(CN(C)c2ncnc3c(S(=O)(=O)c4ccccc4)c(N)[nH]c23)no1
Hey, can you sort those compounds up there by pEC50, smallest first? # answer = labels listed in requested order
e, b, d, a, c

1 = Cc1nc(N2CCOC3(CC3)C2)c2[nH]c(N)c(S(=O)(=O)c3cccc(F)c3)c2n1
2 = Nc1[nH]c2c(-c3ccncc3)ncnc2c1S(=O)(=O)c1ccccc1
3 = CCN(Cc1ccco1)c1ncnc2c(S(=O)(=O)c3ccccc3)c(N)[nH]c12
4 = Cc1nc(N2CCOC(C)C2)c2[nH]c(N)c(S(=O)(=O)c3c(F)cccc3F)c2n1 (centres unmarked)
Which order do these items take when sorted by rising pEC50? List them. Note for the reader: the ranking is given by listing the labels in the order requested.
2, 3, 1, 4

====

Target of assay: human GPR43 (Homo sapiens (Human), UniProt O15552)
Test: Ca-Flux functional assay: determination of agonist/positive allosteric modulator (PAM) activity
Study conditions: CHO-K1 Gα16 cells stably expressing human GPR43; compound added with EC20 sodium acetate; intracellular Ca2+ by FLIPR; does not distinguish agonist from PAM
Assay endpoint: EC50 (nM)

The examples below pair each entry with its known result.
>  <Molecule>
Cc1nc(OC(C)C)c2[nH]c(N)c(S(=O)(=O)c3ccccc3)c2n1

>  <Target of assay>
human GPR43 (Homo sapiens (Human), UniProt O15552)

>  <Unit abbreviation>
nM

>  <EC50>
51

$$$$
>  <Molecule>
Nc1[nH]c2c(CCC3CC3)ncnc2c1S(=O)(=O)c1ccccc1

>  <Target of assay>
human GPR43 (Homo sapiens (Human), UniProt O15552)

>  <Unit abbreviation>
nM

>  <EC50>
267

$$$$

P = Cc1cccc(S(=O)(=O)c2c(N)[nH]c3c(N4CCOC(C)C4)ncnc23)c1 (centres unmarked)
Q = COc1cc(F)ccc1S(=O)(=O)c1c(N)[nH]c2c(N3CCOC(C)C3)ncnc12 (centres unmarked)
R = CCN(Cc1cnn(C)c1)c1ncnc2c(S(=O)(=O)c3ccccc3)c(N)[nH]c12
S = CNc1[nH]c2c(C3CCCCC3)ncnc2c1S(=O)(=O)c1ccccc1
T = COc1ccc(S(=O)(=O)c2c(N)[nH]c3c(N4CCOC(C)C4)ncnc23)cc1 (centres unmarked)
Write the entries in order, lowest recorded EC50 first. I would appreciate it if you listed the labels in the requested order.
T, P, R, Q, S

1 = Cc1nc(N2CCOC(C)C2)c2[nH]c(N)c(S(=O)(=O)c3ccc(F)cc3F)c2n1 (centres unmarked)
2 = C=C(C)c1nc(C)nc2c(S(=O)(=O)c3ccccc3)c(N)[nH]c12
Which entry has a larger number for EC50, 1 or 2 ? Answer by quoting the chosen item's label.
2

====

Target of assay: UniProtKB O15552
Test: Ca-Flux functional assay: determination of agonist/positive allosteric modulator (PAM) activity
Type: cell-based
Study conditions: CHO-K1 Gα16 cells stably expressing human GPR43; compound added with EC20 sodium acetate; intracellular Ca2+ by FLIPR; does not distinguish agonist from PAM
Procedure: Ca-Flux Functional Assay: Determination of Agonist/Positive Allosteric Modulator (PAM) Activity GPR43 agonist/PAM activity was determined by measuring changes in intracellular calcium levels using a Ca^2+ sensitive fluorescent dye. The changes in fluorescent signal were monitored by FLIPR (manufactured by Molecular Devices). GPR43 mediated increases in intracellular Ca^2+ concentration were readily detected upon activation with sodium acetate. […]
pEC50: −log10 of the molar value.
Assay endpoint: pEC50

>  <Molecule>
Cc1cccc(-c2ncnc3c(S(=O)(=O)c4ccccc4)c(N)[nH]c23)c1 [Example 57]

>  <pEC50>
7.82

$$$$
>  <Molecule>
COc1ccc(S(=O)(=O)c2c(N)[nH]c3c(N4CCCC(C)C4)ncnc23)cc1 (centres unmarked) [Example 106]

>  <pEC50>
7.82

$$$$

I = Cc1nc(N(C)C(C)C)c2[nH]c(N)c(S(=O)(=O)c3cccc(F)c3)c2n1 [Example 193]
II = CCC1CN(c2ncnc3c(S(=O)(=O)c4ccccc4)c(N)[nH]c23)CCS1 (centres unmarked) [Example 196]
III = CCC1CN(c2ncnc3c(S(=O)(=O)c4ccc(OC)cc4)c(N)[nH]c23)CCO1 (centres unmarked) [Example 190]
IV = CC1(C)CCCN1c1ncnc2c(S(=O)(=O)c3ccccc3)c(N)[nH]c12 [Example 56]
Ordering criterion: pEC50; begin with the maximum. Respond with an ordered listing of the labels, as requested.
II, IV, III, I
(II: 8.00, IV: 7.74, III: 6.90, I: 6.57)

P = Cc1nc(N2C[C@@H](C)O[C@@H](C)C2)c2[nH]c(N)c(S(=O)(=O)c3ccccc3F)c2n1 [Example 187]
Q = Cc1nc(N2CCC3(CC2)CC3)c2[nH]c(N)c(S(=O)(=O)c3ccccc3)c2n1 [Example 207]
# compare pEC50 for P vs Q ; return the one with the smaller value Your choice should be expressed through its label.
Q

1 = Cc1nc(OC2CCC2)c2[nH]c(N)c(S(=O)(=O)c3ccccc3F)c2n1 [Example 260]
2 = CC(C)c1ncnc2c(S(=O)(=O)c3ccccc3)c(N)[nH]c12 [Example 15]
Of 1 and 2 , which carries the smaller reported pEC50 figure? Lab log: write the label of the selected item as the result.
2

A = COc1ccc(N(C)S(=O)(=O)c2c(N)[nH]c3c(C4=CCCCC4)ncnc23)cc1 [Example 14]
B = C=C(C)c1ncnc2c(S(=O)(=O)c3ccc(OC)cc3)c(N)[nH]c12 [Example 71]
C = Cc1nc(OCC2CCC2)c2[nH]c(N)c(S(=O)(=O)c3ccccc3)c2n1 [Example 249]
Ordering: ascending pEC50. Write the labels, ordered according to the request.
A, B, C
(A: 5.59, B: 6.26, C: 7.51)

1 = Nc1[nH]c2c(C3CCCCC3)nc(C3CC3)nc2c1S(=O)(=O)c1ccccc1 [Example 131]
2 = CC1CN(c2ncnc3c(S(=O)(=O)CCc4ccccc4)c(N)[nH]c23)CCO1 (centres unmarked) [Example 153]
3 = Cc1nc(N2CCO[C@@H](C(F)(F)F)C2)c2[nH]c(N)c(S(=O)(=O)c3c(F)cccc3F)c2n1 [Example 295]
Order the entries by their reported pEC50, beginning at the minimum. Arrange the labels as the request states and list them.
2, 1, 3
(2: 6.09, 1: 6.78, 3: 8.52)

Where these numbers come from: patent US10059713B2
